# TESTED ON: CrPII
# TEST PROTOCOL: ITC binding of small effector molecules to green algal CrPII
# Parameters: species or system Chlamydomonas reinhardtii
# RUN CONDITIONS: in presence ATP (2 mM), read-out: Average Kd (one-site binding model)

MOLECULE | Kd, µM
O=C(O)CCC(=O)C(=O)O [2-OG, 2-oxoglutarate] | 15

====

# TESTED ON: PhyscoPII
# TEST PROTOCOL: ITC binding of small effector molecules to plant-moss PhyscoPII
# Design: species or system Physcomitrella patens
# RUN CONDITIONS: titrant alone, read-out: Kd3 (three-sites binding model)
pKd: −log10 of the molar value.
PROPERTY LABEL: pKd

CHEM SMILES | TESTED ON | MEASURED NUMBER
Nc1ncnc2c1ncn2[C@@H]1O[C@H](COP(=O)(O)OP(=O)(O)OP(=O)(O)O)[C@@H](O)[C@H]1O | PhyscoPII | 4.32
